test system: Monocotyledonous and dicotyledonous test plants; experiment: Herbicidal action after emergence of the plants (post-emergence herbicidal action), Example B2; type: in vivo; conditions: postemergent application, 125 g/ha, DIGSA, 2- to 3-leaf stage, evaluated after 2-3 weeks; 100%=total damage
Below, each entry is listed with its recorded herbicidal damage, DIGSA.

[
  {
    "Molecule": "O=C(C1=C(O)C2CCC(C2)C1=O)c1ccc(C(F)(F)F)n2cnnc12 (centres unmarked) [Compound 1.1]",
    "herbicidal damage, DIGSA": "60%"
  },
  {
    "Molecule": "Cc1nnc2c(C(=O)c3cnn(C)c3O)ccc(C(F)(F)F)n12 [Compound 6.3]",
    "herbicidal damage, DIGSA": "80%"
  },
  {
    "Molecule": "Cc1nnc2c(C(=O)C3=C(O)C4CCC(C4)C3=O)ccc(C(F)F)n12 (centres unmarked) [Compound 1.54]",
    "herbicidal damage, DIGSA": "60%"
  },
  {
    "Molecule": "CCOc1nc2c(C(=O)C3=C(O)C4CCC(C4)C3=O)ccc(C(F)(F)F)n2n1 (centres unmarked) [2.209]",
    "herbicidal damage, DIGSA": "80%"
  },
  {
    "Molecule": "CCSc1nnc2c(C(=O)C3=C(O)C4CCC(C4)C3=O)ccc(C(F)(F)F)n12 (centres unmarked) [Compound 1.212]",
    "herbicidal damage, DIGSA": "80%"
  },
  {
    "Molecule": "CCc1nnc2c(C(=O)C3=C(O)C4CCC(C4)C3=O)ccc(C(F)(F)F)n12 (centres unmarked) [Compound 1.5]",
    "herbicidal damage, DIGSA": "70%"
  },
  {
    "Molecule": "CC(C)c1nnc2c(C(=O)C3=C(O)CCCC3=O)ccc(C(F)(F)F)n12 [Compound 3.6]",
    "herbicidal damage, DIGSA": "70%"
  },
  {
    "Molecule": "COCc1nnc2c(C(=O)C3=C(O)C4CCC(C4)C3=O)ccc(C(F)(F)F)n12 (centres unmarked) [Compound 1.16]",
    "herbicidal damage, DIGSA": "70%"
  }
]

----------
Below, each entry is listed with its recorded herbicidal damage, ECHCG.
system: Monocotyledonous and dicotyledonous test plants; experiment: Herbicidal action prior to emergence of the plants (pre-emergence action), Example B1; format: in vivo; conditions: preemergence application, 250 g/ha, ECHCG, evaluated after 4 weeks; 100%=total damage, 0%=no damage

[
  {
    "Compound": "CC(C)c1nnc2c(C(=O)C3=C(O)CCCC3=O)ccc(C(F)(F)F)n12 [Compound 3.6]",
    "Units symbol": "%",
    "herbicidal damage, ECHCG": 90
  },
  {
    "Compound": "Cc1nnc2c(C(=O)C3C(=O)C4CCC(C4)C3=O)ccc(C(F)(F)F)n12 (centres unmarked) [Compound 1.4]",
    "Units symbol": "%",
    "herbicidal damage, ECHCG": 90
  },
  {
    "Compound": "O=C1CCCC(O)=C1C(=O)c1ccc(C(F)(F)F)n2cnnc12 [Compound 3.1]",
    "Units symbol": "%",
    "herbicidal damage, ECHCG": 10
  },
  {
    "Compound": "CCc1nnc2c(C(=O)C3=C(O)CCCC3=O)ccc(C(F)(F)F)n12 [Compound 3.5]",
    "Units symbol": "%",
    "herbicidal damage, ECHCG": 70
  },
  {
    "Compound": "CC1(C)C(=O)C(C(=O)c2ccc(C(F)(F)F)n3c(-c4ccc(Cl)cc4)nnc23)=C(O)C(C)(C)C1=O [Compound 5.10]",
    "Units symbol": "%",
    "herbicidal damage, ECHCG": 20
  },
  {
    "Compound": "O=C(C1=C(O)C2CCC(C2)C1=O)c1ccc(C(F)(F)F)n2c(-c3ccc(Cl)cc3)nnc12 (centres unmarked) [Compound 1.35]",
    "Units symbol": "%",
    "herbicidal damage, ECHCG": 0
  },
  {
    "Compound": "Cc1nnc2c(C(=O)C3=C(O)CC(C)CC3=O)ccc(C(F)(F)F)n12 (centres unmarked) [Compound 4.3]",
    "Units symbol": "%",
    "herbicidal damage, ECHCG": 100
  },
  {
    "Compound": "O=C1CCCC(O)=C1C(=O)c1ccc(C(F)(F)F)n2c(Cl)nnc12 [Compound 3.2]",
    "Units symbol": "%",
    "herbicidal damage, ECHCG": 70
  }
]

----------
system: Monocotyledonous and dicotyledonous test plants; experiment: Herbicidal action after emergence of the plants (post-emergence herbicidal action), Example B2; type: in vivo; details: postemergent application, 125 g/ha, SETFA, 2- to 3-leaf stage, evaluated after 2-3 weeks; 100%=total damage
Use 60% as the dividing line for herbicidal damage, SETFA, with the line itself on the criterion met side and lower values as criterion not met.

[
  {
    "Compound": "Cc1nc2c(C(=O)C3=C(O)C(C)(C)C(=O)C(C)(C)C3=O)ccc(C(F)(F)F)n2n1",
    "Measured target": "Monocotyledonous and dicotyledonous test plants",
    "Assigned class": "criterion met"
  },
  {
    "Compound": "CC(C)c1nnc2c(C(=O)C3=C(O)C4CCC(C4)C3=O)ccc(C(F)(F)F)n12 (stereo not drawn)",
    "Measured target": "Monocotyledonous and dicotyledonous test plants",
    "Assigned class": "criterion met"
  },
  {
    "Compound": "O=C(C1=C(O)C2CCC(C2)C1=O)c1ccc(C(F)(F)F)n2c(Cl)nnc12 (stereo not drawn)",
    "Measured target": "Monocotyledonous and dicotyledonous test plants",
    "Assigned class": "criterion met"
  },
  {
    "Compound": "Cc1nnc2c(C(=O)C3C(=O)C4CCC(C4)C3=O)ccc(C(F)(F)F)n12 (stereo not drawn)",
    "Measured target": "Monocotyledonous and dicotyledonous test plants",
    "Assigned class": "criterion met"
  },
  {
    "Compound": "CCSc1nnc2c(C(=O)C3=C(O)C4CCC(C4)C3=O)ccc(C(F)(F)F)n12 (stereo not drawn)",
    "Measured target": "Monocotyledonous and dicotyledonous test plants",
    "Assigned class": "criterion met"
  },
  {
    "Compound": "CC(C)c1nnc2c(C(=O)C3=C(O)C(C)(C)C(=O)C(C)(C)C3=O)ccc(C(F)(F)F)n12",
    "Measured target": "Monocotyledonous and dicotyledonous test plants",
    "Assigned class": "criterion not met"
  },
  {
    "Compound": "CC(C)c1nc2c(C(=O)C3=C(O)C4CCC(C4)C3=O)ccc(C(F)(F)F)n2n1 (stereo not drawn)",
    "Measured target": "Monocotyledonous and dicotyledonous test plants",
    "Assigned class": "criterion not met"
  },
  {
    "Compound": "CCOc1nc2c(C(=O)C3=C(O)C4CCC(C4)C3=O)ccc(C(F)(F)F)n2n1 (stereo not drawn)",
    "Measured target": "Monocotyledonous and dicotyledonous test plants",
    "Assigned class": "criterion met"
  },
  {
    "Compound": "CC1(C)C(=O)C(C(=O)c2ccc(C(F)(F)F)n3c(-c4ccc(Cl)cc4)nnc23)=C(O)C(C)(C)C1=O",
    "Measured target": "Monocotyledonous and dicotyledonous test plants",
    "Assigned class": "criterion not met"
  },
  {
    "Compound": "COCc1nnc2c(C(=O)C3=C(O)C(C)(C)C(=O)C(C)(C)C3=O)ccc(C(F)(F)F)n12",
    "Measured target": "Monocotyledonous and dicotyledonous test plants",
    "Assigned class": "criterion not met"
  },
  {
    "Compound": "CC1(C)C(=O)C(C(=O)c2ccc(C(F)(F)F)n3c(Br)nnc23)=C(O)C(C)(C)C1=O",
    "Measured target": "Monocotyledonous and dicotyledonous test plants",
    "Assigned class": "criterion met"
  },
  {
    "Compound": "CC(C)c1nnc2c(C(=O)C3=C(O)CCCC3=O)ccc(C(F)(F)F)n12",
    "Measured target": "Monocotyledonous and dicotyledonous test plants",
    "Assigned class": "criterion met"
  },
  {
    "Compound": "Cc1nnc2c(C(=O)C3=C(O)C4CCC(C4)C3=O)ccc(C(F)F)n12 (stereo not drawn)",
    "Measured target": "Monocotyledonous and dicotyledonous test plants",
    "Assigned class": "criterion not met"
  },
  {
    "Compound": "CCCC1CCC(=O)C(C(=O)c2ccc(C(F)(F)F)n3c(C)nnc23)=C1O (stereo not drawn)",
    "Measured target": "Monocotyledonous and dicotyledonous test plants",
    "Assigned class": "criterion met"
  },
  {
    "Compound": "CCOc1nnc2c(C(=O)C3=C(O)C4CCC(C4)C3=O)ccc(C(F)(F)F)n12 (stereo not drawn)",
    "Measured target": "Monocotyledonous and dicotyledonous test plants",
    "Assigned class": "criterion met"
  },
  {
    "Compound": "CCc1nnc2c(C(=O)C3=C(O)CCCC3=O)ccc(C(F)(F)F)n12",
    "Measured target": "Monocotyledonous and dicotyledonous test plants",
    "Assigned class": "criterion met"
  },
  {
    "Compound": "O=C1CCCC(O)=C1C(=O)c1ccc(C(F)(F)F)n2c(C3CC3)nnc12",
    "Measured target": "Monocotyledonous and dicotyledonous test plants",
    "Assigned class": "criterion met"
  },
  {
    "Compound": "COCc1nnc2c(C(=O)C3=C(O)C4CCC(C4)C3=O)ccc(C(F)(F)F)n12 (stereo not drawn)",
    "Measured target": "Monocotyledonous and dicotyledonous test plants",
    "Assigned class": "criterion met"
  },
  {
    "Compound": "O=C(C1=C(O)C2CCC(C2)C1=O)c1ccc(C(F)(F)F)n2nc(Cl)nc12 (stereo not drawn)",
    "Measured target": "Monocotyledonous and dicotyledonous test plants",
    "Assigned class": "criterion met"
  },
  {
    "Compound": "O=C1CCCC(O)=C1C(=O)c1ccc(C(F)(F)F)n2c(Br)nnc12",
    "Measured target": "Monocotyledonous and dicotyledonous test plants",
    "Assigned class": "criterion not met"
  },
  {
    "Compound": "Cc1nc2c(C(=O)C3=C(O)C4CCC(C4)C3=O)ccc(C(F)(F)F)n2n1 (stereo not drawn)",
    "Measured target": "Monocotyledonous and dicotyledonous test plants",
    "Assigned class": "criterion met"
  },
  {
    "Compound": "Cc1nnc2c(C(=O)C3=C(O)C(C)(C)C(=O)C(C)(C)C3=O)ccc(C(F)(F)F)n12",
    "Measured target": "Monocotyledonous and dicotyledonous test plants",
    "Assigned class": "criterion not met"
  }
]
